Assignment: determine reported Plant response rating, Wild oats for the given compounds.
- System: wild oat (Avena fatua)
- experimental.details: Test B pre-/postemergence
- Assay type: in vivo
- condition.description: Rate 250 g/ha, Postemergence
Answers are plain numbers.

| compound | measurement.target | measured.value |
| --- | --- | --- |
| Cc1cnc(-c2ccc(C(F)(F)F)cc2)nc1Cn1ccc(C(F)(F)F)n1 [compound 9] | wild oat (Avena fatua) | 6 |

# batch: return Plant response rating, Wild oats for each of the 3 compounds below
1. CCc1cnc(-n2ccc(C(F)(F)F)n2)nc1Cc1cccc(C(F)(F)F)c1 [Compound 46]
2. Cc1cnc(-c2ccc(C(F)(F)F)cc2)nc1C(=O)c1ccc(C(F)(F)F)cc1 [Compound 74]
3. Cc1cnc(-c2ccc(Cl)cc2)nc1Cc1cccc(C(F)(F)F)c1 [Compound 28]

A:
1. 4
2. 1
3. 6

Q: For the compound shown here, Cc1cnc(-c2ccccc2)nc1Cn1ccc(C(F)(F)F)n1 [Compound 7] , give the reported Plant response rating, Wild oats.
A: 0
